Test protocol: Activation of human G6PD canton (R459L) mutant assessed as restoration of activity using G6P as substrate incubated for 3 hrs d by substrate addition and mesured after 2.5 mins by diaphorase-coupled enzyme assay
pEC50: −log10 of the molar value.
Result type: pEC50

> print(dat)
                                smiles.code  reported.result
1  c1ccc2c(CCNCCSSCCNCCc3c[nH]c4ccccc34)c[nH]c2c1             5.52
